target: Recombinant Btk (Homo sapiens (Human), UniProt Q06187); assay: BTK kinase assay (TR-FRET); conditions: read-out: IC50 (nM) Btk; 1 hour pre-incubation, ATP at Km
Sequence (Q06187 whole entry): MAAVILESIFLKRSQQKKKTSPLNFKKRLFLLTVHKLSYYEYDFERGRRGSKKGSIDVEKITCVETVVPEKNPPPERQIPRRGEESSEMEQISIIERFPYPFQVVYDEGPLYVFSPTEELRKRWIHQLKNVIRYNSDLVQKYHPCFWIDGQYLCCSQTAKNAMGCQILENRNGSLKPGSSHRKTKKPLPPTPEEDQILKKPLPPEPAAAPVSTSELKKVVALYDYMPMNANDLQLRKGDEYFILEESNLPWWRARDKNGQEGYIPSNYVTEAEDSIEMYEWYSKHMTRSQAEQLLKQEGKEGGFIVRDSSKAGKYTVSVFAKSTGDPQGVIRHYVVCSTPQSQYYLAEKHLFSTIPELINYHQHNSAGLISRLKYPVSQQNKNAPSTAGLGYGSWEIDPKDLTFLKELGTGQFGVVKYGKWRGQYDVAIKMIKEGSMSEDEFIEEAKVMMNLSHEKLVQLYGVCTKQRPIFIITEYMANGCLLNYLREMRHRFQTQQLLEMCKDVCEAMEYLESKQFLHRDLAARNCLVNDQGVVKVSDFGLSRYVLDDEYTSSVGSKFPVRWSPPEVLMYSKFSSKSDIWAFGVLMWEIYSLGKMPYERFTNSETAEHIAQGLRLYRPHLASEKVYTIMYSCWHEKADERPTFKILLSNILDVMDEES
observable: IC50

compound	IC50
C=CC(=O)Nc1cc(C)ccc1C1CCNc2c(C(N)=O)c(-c3ccc(OCC4CC4)cc3)nn21 (stereo not drawn)	5.6 nM

**Query** Which IC50 is reported for this compound? N#CCC(=O)N1CCc2[nH]c3c(C(N)=O)c(-c4ccc(Oc5ccccc5)cc4)nn3c2C1
**Result** 110 nM

**Query** Another compound to check: NC(=O)c1c(-c2ccc(Oc3ccccc3)cc2)nn2cc(-c3cccc(N)c3)[nH]c12
**Result** 110 nM

###

target: Recombinant Btk (Homo sapiens (Human)); assay: BTK kinase assay (TR-FRET); settings: read-out: IC50 (nM) Btk; 1 hour pre-incubation, ATP at Km
Structures can show the parent of a compound that is named as a salt.
observable: IC50 (nM)
State the answer as a number, implicitly in nM.

compound	IC50 [nM]
C=CC(=O)N1CC2(CNc3c(C(N)=O)c(-c4ccc(Oc5ccccc5)cc4)nn32)C1	5
NC(=O)c1c(-c2ccc(OCc3ccccc3)cc2)nn2c3c([nH]c12)CCNC3 [Compound 125, formate]	5000
C=CC(=O)Nc1ccccc1C1CCNc2c(C(N)=O)c(-c3ccc(Oc4ccc(F)cc4)cc3)nn21 (stereo not shown)	1.7
C=CC(=O)Nc1cc(C2CCNc3c(C(N)=O)c(-c4ccc(Oc5ccccc5)cc4)nn32)ccc1Cl (stereo not shown)	1.1
NC(=O)c1c(-c2ccc(Oc3ccccc3)cc2)nn2c1NC(=O)C21CCNCC1	3100

**Query** Which IC50 is reported for this compound? C=CC(=O)N1CCC(C2CCNc3c(C(N)=O)c(-c4ccc(C)c(OC)c4)nn32)CC1 (stereo not shown)
**Result** 4.8

**Query** Another compound to check: C=CC(=O)Nc1ccccc1C1CCNc2c(C(N)=O)c(-c3cc(Cl)c(OC)c(Cl)c3)nn21 (stereo not shown)
**Result** 0.15

**Query** Another compound to check: NC(=O)c1c(-c2ccc(OCC3CC3)cc2)nn2c1NCCC2c1ccccc1N (stereo not shown)
**Result** 5300

**Query** Another compound to check: C=CC(=O)Nc1ccccc1C1CCNc2c(C(N)=O)c(-c3cccc(Cl)c3)nn21 (stereo not shown)
**Result** 0.96

**Query** Another compound to check: NC(=O)c1c(-c2ccc(Oc3ccccc3)cc2)nn2c3c([nH]c12)CCNCC3
**Result** 180

**Query** Another compound to check: C=CC(=O)N1CC2(CCNc3c(C(N)=O)c(-c4ccc(Oc5ccccc5)cc4)nn32)C1
**Result** 40

**Query** Another compound to check: C=CC(=O)N1CC(C2CCNc3c(C(N)=O)c(-c4ccc(Oc5ccc(Cl)c(Cl)c5)cc4)nn32)C1 (stereo not shown)
**Result** 1.7

**Query** Another compound to check: CC=CC(=O)N1CCc2[nH]c3c(C(N)=O)c(-c4ccc(Oc5ccccc5)cc4)nn3c2C1
**Result** 0.43

**Query** Another compound to check: NC(=O)c1c(-c2ccc(Oc3ccccc3)cc2)nn2c1NCC21CN(Cc2ccccc2)C1
**Result** 220

**Query** Another compound to check: NCC1CCNc2c(C(N)=O)c(-c3ccc(Oc4ccccc4)cc3)nn21 (stereo not shown)
**Result** 1700

###

target: Recombinant Btk (Homo sapiens (Human)); experiment: BTK kinase assay (TR-FRET); conditions: read-out: IC50 (nM) Btk; 1 hour pre-incubation, ATP at Km
Sorting guide: entries reporting IC50 beneath 3 nM go in the rule met pile, the rest go in the rule not met pile.

Recorded results for 4 compounds are shown here.
compound	measured.target	group.label
C=CC(=O)NCC1CNc2c(C(N)=O)c(-c3ccc(Oc4ccccc4)cc3)nn2C1 (centres unmarked)	Recombinant Btk (Homo sapiens (Human))	rule met
C=CC(=O)N1CC2(CNc3c(C(N)=O)c(-c4ccc(Oc5ccccc5)cc4)nn3C2)C1	Recombinant Btk (Homo sapiens (Human))	rule not met
N#CN1CCC([C@@H]2CCNc3c(C(N)=O)c(-c4ccc(Oc5ccccc5)cc4)nn32)CC1	Recombinant Btk (Homo sapiens (Human))	rule not met
NC(=O)c1c(-c2ccc(Oc3ccccc3)cc2)nn2c1NCCc1cc(N)ccc1-2	Recombinant Btk (Homo sapiens (Human))	rule not met

**Query** Could you please tell me whether IC50 recorded for NC(=O)c1c(-c2ccc(Oc3ccccc3)cc2)nn2c1NC(=O)Cc1cc(N)ccc1-2 is less than 3 nM?
**Result** rule not met

**Query** Another compound to check: C=CC(=O)Nc1ccccc1C1CCNc2c(C(N)=O)c(-c3ccc(Cl)c(F)c3)nn21 (centres unmarked)
**Result** rule met

**Query** Another compound to check: CC#CC(=O)N1CCC(C2CCNc3c(C(N)=O)c(-c4ccc(Oc5ccc(F)cc5F)cc4)nn32)CC1 (centres unmarked)
**Result** rule not met

###

target: Recombinant Btk (Homo sapiens (Human), UniProt Q06187); test: BTK kinase assay (TR-FRET); conditions: read-out: IC50 (nM) Btk; 1 hour pre-incubation, ATP at Km
Sorting guide: entries reporting IC50 beneath 3 nM go in the 1 pile, the rest go in the 0 pile.

Recorded results for 5 compounds are shown here.
compound	group.label
C=CC(=O)Nc1ccccc1C1CCNc2c(C(N)=O)c(-c3cc(OC)c(OC)c(OC)c3)nn21 (centres unmarked)	1
C=CC(=O)N1CC(C2CCNc3c(C(N)=O)c(-c4ccc(Cl)cc4)nn32)C1 (centres unmarked)	0
C=CC(=O)Nc1ccccc1C1CCNc2c(C(N)=O)c(-c3ccc(OC)c(OC)c3)nn21 (centres unmarked)	0
NC(=O)c1c(-c2ccc(Oc3ccccc3)cc2)nn2c1[nH]c1cnccc12	0
NC(=O)c1c(-c2ccc(Oc3ccccc3)cc2)nn2c(-c3cccc(N)c3)c[nH]c12	0

**Query** Could you please tell me whether IC50 recorded for NC(=O)c1c(-c2ccc(Oc3ccccc3)cc2)nn2c1NCCc1cc([N+](=O)[O-])ccc1-2 is less than 3 nM?
**Result** 0

**Query** Another compound to check: CCC#CC(=O)N1CCC([C@@H]2CCNc3c(C(N)=O)c(-c4ccc(Oc5ccccc5)cc4)nn32)CC1
**Result** 1

**Query** Another compound to check: C=CC(=O)NCC1CCNc2c(C(N)=O)c(-c3ccc(OCc4ccccc4)cc3)nn21 (centres unmarked)
**Result** 0

###

target: Recombinant Btk (Homo sapiens (Human), UniProt Q06187); experiment: BTK kinase assay (TR-FRET); conditions: read-out: IC50 (nM) Btk; 1 hour pre-incubation, ATP at Km
Structures can show the parent of a compound that is named as a salt.
Kindly note that classification relies on IC50 with these boundaries: low band = under 20 nM, middle band = from 20 nM up to 400 nM, high band = 400 nM and over

compound	group.label
NC(=O)c1c(-c2ccc(Oc3ccccc3)cc2)nn2c1NCCC2c1cccc(N)c1 (stereo not shown)	middle band
CC#CC(=O)N1CCC(C2CCNc3c(C(N)=O)c(-c4ccc(Oc5ccc(F)cc5)cc4)nn32)CC1 (stereo not shown)	middle band
NC(=O)c1c(-c2ccc(Oc3ccccc3)cc2)nn2c1NCCC2c1ccncc1 (stereo not shown)	middle band
CNCC1CCNc2c(C(N)=O)c(-c3ccc(Oc4ccccc4)cc3)nn21 (stereo not shown)	high band
CC(C)(C)OC(=O)N1CC2[C@@H](CNc3c(C(N)=O)c(-c4ccc(Oc5ccccc5)cc4)nn32)C1 (single isomer, unassigned)	high band
NC(=O)c1c(-c2ccc(Oc3ccccc3)cc2)nn2c1NCCC2c1cccnc1 (stereo not shown)	high band
C=CC(=O)N1CCCC1C1CCNc2c(C(N)=O)c(-c3ccc(Oc4ccccc4)cc3)nn21 (stereo not shown)	low band
NC(=O)c1c(-c2ccc(Oc3ccccc3)cc2)nn2c1[nH]c1ccc([N+](=O)[O-])cc12	middle band

**Query** Category of C=CC(=O)Nc1ccc2c(c1)CC(=O)Nc1c(C(N)=O)c(-c3ccc(Oc4ccccc4)cc3)nn1-2 , please.
**Result** middle band

**Query** Another compound to check: CC(=O)N1CCc2[nH]c3c(C(N)=O)c(-c4ccc(Oc5ccccc5)cc4)nn3c2C1
**Result** middle band

**Query** Another compound to check: NCC1CCNc2c(C(N)=O)c(-c3ccc(OCC4CC4)cc3)nn21 (stereo not shown)
**Result** high band

**Query** Another compound to check: NC(=O)c1c(-c2ccc(Oc3ccccc3)cc2)nn2c1NCC21CCNCC1
**Result** high band

**Query** Another compound to check: CC#CC(=O)N1CC(C2CCNc3c(C(N)=O)c(-c4ccc(Oc5ccc(F)cc5F)cc4)nn32)C1 (stereo not shown)
**Result** middle band

**Query** Another compound to check: COCCOc1ccc(-c2nn3c(c2C(N)=O)NCCC3c2ccccc2N)cc1 (stereo not shown)
**Result** high band

**Query** Another compound to check: CN(C)C/C=C/C(=O)N1CCc2c([nH]c3c(C(N)=O)c(-c4ccc(Oc5ccccc5)cc4)nn23)C1 [Compound 64, trifluoroacetate]
**Result** low band

**Query** Another compound to check: NC(=O)c1c(-c2ccc(Oc3ccccc3)cc2)nn2c3c([nH]c12)CNCC3
**Result** middle band

**Query** Another compound to check: NC(=O)c1c(-c2ccc(Oc3ccccc3)cc2)nn2c1NCC21CCN(Cc2ccccc2)CC1
**Result** high band

**Query** Another compound to check: C=CC(=O)Nc1ccccc1C1CCNc2c(C(N)=O)c(-c3ccc(F)c(Cl)c3)nn21 (stereo not shown)
**Result** low band

These data points were gathered from patent US20250340560A1.
